Values from the supplement of paper PMC10567573

For each entry below, report its protein stability index value.
B1: USP39 (parent)
chain: TLSEAYIQIWKRRDNDETNQQGA

variants of: B1; test: protein stability index of a GFP-peptide fusion (GPS, HEK-293T) (PSI 1-6); higher = more stable; conditions: c terminus: native;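 further: lentivirally expressed fusions sorted by FACS into six bins by GFP to DsRed ratio, PSI derived from sequencing read proportions per bin multiplied by bin number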
Reply briefly: the number, and no unit.

variant R12K , protein stability index observed: 2.89

variant L2D , protein stability index observed: 3.46

variant S3D , protein stability index observed: 3.55

variant I7N , protein stability index observed: 2.82

variant K11G , protein stability index observed: 2.39

variant I9E , protein stability index observed: 3.11

variant Y6K , protein stability index observed: 3.02

variant A5K , protein stability index observed: 2.2

variant I9L , protein stability index observed: 2.21

variant R12D , protein stability index observed: 3.2

variant D16H , protein stability index observed: 1.63

variant A5G , protein stability index observed: 2.86
